test: Cmax in cynomolgus monkey plasma at 9 mg/kg, administered through oral gavage measured after 24 hrs; assay type: ADME, organism-based, Macaca fascicularis; parameters: dose 9 mg/kg, route oral
Measurement Label: Cmax (ng/mL)
Numeric only. Scale: ng/mL

// Cmax lookup, key: "CCCC[C@@H](CCO)Nc1nc(N)ncc1OC" 34

* * *

target: Toll-like receptor 7 (Homo sapiens); assay: Activation of TLR7 in human PBMCs incubated for overnight duration followed by compound-treated cell supernatant conditioned media transfer to HCV1b transfected human HuH7-luc/neo replicon cells assessed as induction of INFalpha-mediated suppression of virus growth by firefly-luciferase reporter gene assay
Label key: 1.0 means LED under 0.2 µM; 0.0 means LED of 0.2 µM or more.

CCC[C@@H](CO)Nc1nc(N)ncc1OC: 0.0
C=CCNc1nc(N)ncc1OC: 0.0
CCC[C@@H](CCO)Nc1nc(N)ncc1OC: 0.0
CCCCNc1nc(N)ncc1OCc1ccccc1: 0.0

Confirm or reject: LED of CCCC(C)Nc1nc(N)ncc1OC (racemic) lies strictly below 0.2 µM 0.0

Now this one: "COc1cnc(N)nc1N[C@H](CCO)CC(C)C" 0.0

* * *

target: Toll-like receptor 8 (Homo sapiens) (UniProt Q9NR97); assay: Agonist activity at human TLR8 expressed in HEK293 cells assessed as measured after 6 hrs by NF-kappaB luciferase reporter gene assay; assay type: cell-based
Sequence (Q9NR97 whole entry): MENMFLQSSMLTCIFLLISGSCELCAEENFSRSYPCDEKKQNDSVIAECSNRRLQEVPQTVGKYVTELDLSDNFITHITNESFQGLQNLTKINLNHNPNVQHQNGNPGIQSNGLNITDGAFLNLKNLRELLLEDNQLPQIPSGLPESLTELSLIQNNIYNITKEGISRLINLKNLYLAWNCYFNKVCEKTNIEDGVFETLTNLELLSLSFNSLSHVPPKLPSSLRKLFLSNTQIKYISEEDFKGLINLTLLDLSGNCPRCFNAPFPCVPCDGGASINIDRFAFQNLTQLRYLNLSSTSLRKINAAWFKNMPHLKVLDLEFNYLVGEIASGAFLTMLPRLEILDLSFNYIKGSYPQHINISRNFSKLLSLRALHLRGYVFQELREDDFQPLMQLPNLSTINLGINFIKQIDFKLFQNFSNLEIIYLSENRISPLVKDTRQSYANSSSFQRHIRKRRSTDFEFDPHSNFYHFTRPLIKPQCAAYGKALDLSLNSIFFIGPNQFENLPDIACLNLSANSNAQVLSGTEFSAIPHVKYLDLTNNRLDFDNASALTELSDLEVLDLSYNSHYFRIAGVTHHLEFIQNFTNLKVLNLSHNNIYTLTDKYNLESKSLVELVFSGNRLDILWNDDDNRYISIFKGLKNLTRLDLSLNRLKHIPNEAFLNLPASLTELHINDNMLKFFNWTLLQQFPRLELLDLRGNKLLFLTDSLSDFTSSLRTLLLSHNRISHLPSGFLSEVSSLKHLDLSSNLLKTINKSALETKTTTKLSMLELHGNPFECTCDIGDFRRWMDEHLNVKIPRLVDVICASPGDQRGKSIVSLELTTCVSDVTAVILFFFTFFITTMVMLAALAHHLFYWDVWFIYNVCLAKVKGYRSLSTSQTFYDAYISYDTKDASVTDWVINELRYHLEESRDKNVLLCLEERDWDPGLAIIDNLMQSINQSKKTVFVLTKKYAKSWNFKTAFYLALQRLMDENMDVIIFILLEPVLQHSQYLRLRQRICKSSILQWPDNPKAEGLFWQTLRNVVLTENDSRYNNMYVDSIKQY
Mark TRUE only for LED values smaller than 3 µM; exact matches and larger values are FALSE.

CCC[C@H](CO)Nc1nc(N)ncc1OC: FALSE
CCCCNc1nc(N)ncc1OCc1cccnn1: TRUE
CCCC[C@@H](CO)Nc1nc(N)ncc1OC: TRUE

Say whether its LED is strictly beneath 3 µM. Entry: "COc1cnc(N)nc1NCCC1CC1" FALSE

Repeat for the following molecule: "CCCCNc1nc(N)ncc1OCc1nn(C)c2ccccc12" TRUE

Entry "COc1cnc(N)nc1NCCCC(F)(F)F" please FALSE

Cool, now CCCC(C)Nc1nc(N)ncc1OC (racemic) TRUE

* * *

assay: Cmax in Sprague-Dawley rat liver at 10 mg/kg, po; assay type: ADME, organism-based; design: dose 10 mg/kg, route oral
Measurement Label: Cmax (ng/g)
Entry rule: numbers only, all in ng/g.

Param item = "CCCC[C@@H](CCO)Nc1nc(N)ncc1OC" ; retrieve measured Cmax. 1710

* * *

test: Tmax in C57Bl/6 mouse at 1 to 50 mg/kg, po; assay type: ADME, organism-based; conditions: in vivo
Measurement Label: Tmax

Value lookup for Tmax; key = "CCCC[C@@H](CCO)Nc1nc(N)ncc1OC" 30 to 60 min

* * *

target: Toll-like receptor 7 (Homo sapiens) (UniProt Q9NYK1); assay: Agonist activity at human TLR7 expressed in HEK293 cells measured after 6 hrs by NF-kappaB luciferase reporter gene assay; assay type: cell-based
Measurement Label: LED (µM)
Give the value in µM but do not write µM after it.

Guide cases for LED, answers given:
CCC[C@@H](CO)Nc1nc(N)ncc1OC: 8.4
CCCCNc1nc(N)ncc1OCCCc1ccccc1: 1.5
CCCCNc1nc(N)ncc1OCc1csc(C)n1: 0.29
CCC(C)[C@H](CCO)Nc1nc(N)ncc1OC (some centres undefined): 10.4
COc1cnc(N)nc1NCCCC(F)(F)F: 6.5
CCCCNc1nc(N)ncc1OCc1nn(C)c2ccccc12: 0.014

Let us move to another entry and its LED.
Please state recorded LED (tested on Toll-like receptor 7 (Homo sapiens) (UniProt Q9NYK1)) of "CCCCNc1nc(N)ncc1OCCC" 6.2

* * *

test: Oral bioavailability in cynomolgus monkey at 30 mg/kg, measured after 24 hrs; type: ADME, organism-based, Macaca fascicularis; settings: in vivo
Measurement Label: bioavailability (%)
Numeric only. Scale: %

Quick check: bioavailability of "CCCC[C@@H](CCO)Nc1nc(N)ncc1OC" ? 3.9

* * *

experiment: Ratio of drug level in Sprague-Dawley rat liver to plasma at 10 mg/kg, po; format: ADME, organism-based; conditions: liver and plasma
Measurement Label: Kp
The reply should be a number, written without any unit.

May I ask what Kp has been recorded for "CCCC[C@@H](CCO)Nc1nc(N)ncc1OC" ? 14

* * *

assay: AUC(0 to last) in cynomolgus monkey plasma at 9 mg/kg, administered through oral gavage measured after 24 hrs; type: ADME, organism-based, Macaca fascicularis; design: dose 9 mg/kg, route oral, time 0 - last
Measurement Label: AUC(0-t) at 24 h
Your reply should be a number followed by the unit it is expressed in.

Query: AUC(0-t) at 24 h; subject: "CCCC[C@@H](CCO)Nc1nc(N)ncc1OC" 72 ng·h/mL

* * *

target: Toll-like receptor 7 (Homo sapiens) (UniProt Q9NYK1); assay: Activation of TLR7 in human PBMCs incubated for overnight duration followed by compound-treated cell supernatant conditioned media transfer to HCV1b transfected human HuH7-luc/neo replicon cells assessed as induction of INFalpha-mediated suppression of virus growth by firefly-luciferase reporter gene assay
Param label: returns Fulfilled when LED < 2 µM, returns Not fulfilled otherwise, including exact equality.

Use these answered entries as a reference point.
CCCCNc1nc(N)ncc1OCCC: Not fulfilled
CCC(C)[C@H](CCO)Nc1nc(N)ncc1OC (some centres not stated): Not fulfilled
COc1cnc(N)nc1N[C@H](CO)CC(C)C: Not fulfilled
CCCCNc1nc(N)ncc1OCCCc1ccccc1: Fulfilled
CCCCNc1nc(N)ncc1OC(C)C: Fulfilled
CCCCNc1nc(N)ncc1OCc1nn(C)c2ccccc12: Fulfilled

Continue with the compound presented below.
Just wondering, is LED of "COc1cnc(N)nc1NCCCC(F)(F)F" below 2 µM? Fulfilled

* * *

# LED values compiled below
Biological target: Toll-like receptor 7 (Homo sapiens) (UniProt Q9NYK1)
Sequence (whole entry): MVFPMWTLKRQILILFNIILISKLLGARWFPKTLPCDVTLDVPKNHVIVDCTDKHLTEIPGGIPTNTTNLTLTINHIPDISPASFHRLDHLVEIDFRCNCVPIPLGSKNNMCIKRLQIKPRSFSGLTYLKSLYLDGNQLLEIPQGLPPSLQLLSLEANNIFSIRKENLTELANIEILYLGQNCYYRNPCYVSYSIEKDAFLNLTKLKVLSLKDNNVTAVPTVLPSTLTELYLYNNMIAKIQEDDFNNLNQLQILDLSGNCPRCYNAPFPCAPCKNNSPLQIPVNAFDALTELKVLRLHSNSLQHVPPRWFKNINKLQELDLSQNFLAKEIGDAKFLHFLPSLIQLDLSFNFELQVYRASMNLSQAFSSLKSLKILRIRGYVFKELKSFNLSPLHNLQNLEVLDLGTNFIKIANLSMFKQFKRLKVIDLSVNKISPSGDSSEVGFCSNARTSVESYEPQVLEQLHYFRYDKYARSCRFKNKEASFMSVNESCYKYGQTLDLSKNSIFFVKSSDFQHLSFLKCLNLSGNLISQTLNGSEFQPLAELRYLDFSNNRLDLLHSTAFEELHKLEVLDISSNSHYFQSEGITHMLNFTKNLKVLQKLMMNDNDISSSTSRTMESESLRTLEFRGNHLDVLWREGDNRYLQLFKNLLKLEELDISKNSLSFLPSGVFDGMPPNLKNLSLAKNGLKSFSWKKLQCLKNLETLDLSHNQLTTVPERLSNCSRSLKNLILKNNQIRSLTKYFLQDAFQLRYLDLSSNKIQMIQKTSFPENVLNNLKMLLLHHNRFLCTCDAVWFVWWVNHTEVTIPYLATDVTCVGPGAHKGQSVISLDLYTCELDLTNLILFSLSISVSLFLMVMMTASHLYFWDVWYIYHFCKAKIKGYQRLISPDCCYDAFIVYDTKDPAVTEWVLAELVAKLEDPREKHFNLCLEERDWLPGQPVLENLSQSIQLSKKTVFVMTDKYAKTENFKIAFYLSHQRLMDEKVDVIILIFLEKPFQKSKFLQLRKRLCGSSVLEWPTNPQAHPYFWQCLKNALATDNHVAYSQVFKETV
Experiment: Agonist activity at human TLR7 expressed in HEK293 cells measured after 6 hrs by NF-kappaB luciferase reporter gene assay
Type: cell-based
Please state the figure in µM; there is no need to write the unit.

CCCCNc1nc(N)ncc1OCc1nc(C)oc1C: 0.46
CCCCNc1nc(N)ncc1OCc1nccc(OC)c1OC: 0.13
CCCCNc1nc(N)nc(C)c1OCc1ccccc1: 18
CCCCNc1nc(N)ncc1OCc1cnn(C)c1: 7
CCCCNc1nc(N)ncc1OCc1ncco1: 2.87

# next compound below
Any idea what LED came out for "CCCCNc1nc(N)ncc1OCc1cnccn1" on Toll-like receptor 7 (Homo sapiens) (UniProt Q9NYK1)? 0.51

* * *

Target: Toll-like receptor 7 (Homo sapiens)
Sequence (whole entry): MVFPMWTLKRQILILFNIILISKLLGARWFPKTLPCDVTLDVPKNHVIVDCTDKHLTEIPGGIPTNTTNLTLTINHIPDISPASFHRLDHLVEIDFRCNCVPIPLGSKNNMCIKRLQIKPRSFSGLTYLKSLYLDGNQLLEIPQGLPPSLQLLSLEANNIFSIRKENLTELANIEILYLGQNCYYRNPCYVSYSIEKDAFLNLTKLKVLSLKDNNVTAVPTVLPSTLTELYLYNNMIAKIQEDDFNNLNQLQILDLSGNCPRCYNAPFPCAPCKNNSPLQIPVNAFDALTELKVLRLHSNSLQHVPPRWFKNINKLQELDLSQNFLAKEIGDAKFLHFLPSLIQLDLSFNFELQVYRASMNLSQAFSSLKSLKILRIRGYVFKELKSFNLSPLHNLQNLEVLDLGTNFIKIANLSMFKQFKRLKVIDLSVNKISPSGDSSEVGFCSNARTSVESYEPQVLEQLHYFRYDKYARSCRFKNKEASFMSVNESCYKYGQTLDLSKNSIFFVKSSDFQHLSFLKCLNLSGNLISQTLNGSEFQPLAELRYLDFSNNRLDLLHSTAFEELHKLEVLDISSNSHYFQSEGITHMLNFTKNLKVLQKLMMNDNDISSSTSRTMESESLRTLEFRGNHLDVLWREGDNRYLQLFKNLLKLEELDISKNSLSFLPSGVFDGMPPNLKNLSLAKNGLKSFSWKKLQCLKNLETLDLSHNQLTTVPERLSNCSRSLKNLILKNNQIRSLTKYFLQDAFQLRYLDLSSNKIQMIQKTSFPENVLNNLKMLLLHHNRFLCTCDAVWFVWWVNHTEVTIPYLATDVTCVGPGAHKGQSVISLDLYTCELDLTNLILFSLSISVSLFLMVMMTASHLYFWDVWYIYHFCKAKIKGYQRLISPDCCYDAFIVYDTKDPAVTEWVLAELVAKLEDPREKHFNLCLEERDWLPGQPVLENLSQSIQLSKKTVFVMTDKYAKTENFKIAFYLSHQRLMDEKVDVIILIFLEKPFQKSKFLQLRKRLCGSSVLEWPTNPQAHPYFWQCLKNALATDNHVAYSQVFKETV
Assay: Activation of TLR7 in human PBMCs incubated for overnight duration followed by compound-treated cell supernatant conditioned media transfer to HCV1b transfected human HuH7-luc/neo replicon cells assessed as induction of INFalpha-mediated suppression of virus growth by firefly-luciferase reporter gene assay
# LED annotations
# output: number + unit

Answered cases to consult:
CCCCNc1nc(N)ncc1OCc1csc(C)n1: 0.07 µM
CCCC[C@@H](CCO)Nc1nc(N)ncc1OC: 0.5 µM

Item "COc1cnc(N)nc1NCCC1CC1" has what recorded LED? 6.8 µM

Just for reference, ChEMBL document CHEMBL4428063 is where these values come from.
